# systemName: hPPARα chimeric receptor (Homo sapiens)
# Construct: "expression plasmids encoding hPPARα, hPPARβ or mPPARγ chimeric receptors"
# Sequence (Q07869 200-468 limits assumed, change not shown): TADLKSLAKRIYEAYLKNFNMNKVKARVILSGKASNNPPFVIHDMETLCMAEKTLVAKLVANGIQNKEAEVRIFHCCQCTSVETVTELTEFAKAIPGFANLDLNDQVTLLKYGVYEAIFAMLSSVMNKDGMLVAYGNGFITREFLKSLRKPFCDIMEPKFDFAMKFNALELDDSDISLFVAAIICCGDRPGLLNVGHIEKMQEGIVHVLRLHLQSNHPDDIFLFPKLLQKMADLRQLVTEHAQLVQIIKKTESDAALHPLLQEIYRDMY
# experimentalProtocol: Transient transfections assay using the HepG2 hepatoma cell line (Gal4-PPAR chimeric receptor, luciferase reporter), hPPARα
# conditionLabel: HepG2 cells transiently transfected, 24 hours incubation, read-out: Hep G2-hα EC50
valueType: EC50 (nM)

[[record]]
compound = "Cc1nc(-c2ccc(C(F)(F)F)cc2)sc1CSc1ccc(OCC(=O)O)c2ccccc12 [Example 3]"
endpointvalue = 3580

[[record]]
compound = "Cc1cc(SCc2sc(-c3ccc(C(F)(F)F)cc3)nc2C)c2c(c1OCC(=O)O)CCCO2 [Example 4]"
endpointvalue = 1760

[[record]]
compound = "Cc1cc(SCc2sc(-c3ccc(C(F)(F)F)cc3)nc2C)c2c(c1OCC(=O)O)CCO2 [Example 5]"
endpointvalue = 52

[[record]]
compound = "Cc1cc(SCc2sc(-c3ccc(C(F)(F)F)cc3)nc2C)c2c(c1OCC(=O)O)CCC2 [Example 6]"
endpointvalue = 191

[[record]]
compound = "Cc1nc(-c2ccc(C(F)(F)F)cc2)sc1CSc1ccc(OCC(=O)O)c2c1CCCC2 [Example 2]"
endpointvalue = 2970


###

valueType: melting point

[[record]]
molecule = "Cc1cc(SCc2sc(-c3ccc(C(F)(F)F)cc3)nc2C)c2c(c1OCC(=O)O)CCCO2 [Example 4]"
valuetype = "melting point"
endpointvalue = "203.5 to 205.5 °C"

[[record]]
molecule = "Cc1nc(-c2ccc(C(F)(F)F)cc2)sc1CSc1ccc(OCC(=O)O)c2ccccc12 [Example 3]"
valuetype = "melting point"
endpointvalue = "181 to 183 °C"

[[record]]
molecule = "Cc1nc(-c2ccc(C(F)(F)F)cc2)sc1CSc1ccc(OCC(=O)O)c2c1CCCC2 [Example 2]"
valuetype = "melting point"
endpointvalue = "166 to 167 °C"

[[record]]
molecule = "Cc1cc(SCc2sc(-c3ccc(C(F)(F)F)cc3)nc2C)c2c(c1OCC(=O)O)CCC2 [Example 6]"
valuetype = "melting point"
endpointvalue = "184 °C"

[[record]]
molecule = "Cc1cc(SCc2sc(-c3ccc(C(F)(F)F)cc3)nc2C)c2c(c1OCC(=O)O)CCO2 [Example 5]"
valuetype = "melting point"
endpointvalue = "157 to 158 °C"

